System: tagln
Assay: Real-time quantitative PCR of PLsis marker gene expression
Format: cell-based, human
Settings: HepG2 cells, 24 hr exposure, relative value, control group = 1.0, GAPDH internal standard, n=3
Protocol: Using RNeasy Mini Kit (QIAGEN), total RNA was purified from the cells, and cDNA was synthesized in a 100 μL system using TaqMan Reverse Transcription Reagents (PE Applied Biosystems). As the primer for glyceraldehyde-3-phosphoric acid dehydrogenase (GAPDH) and VIC labeled probe, those attached to TaqMan GAPDH Control Reagents (PE Applied Biosystems) were used. […] For each test compound, the expression variation rate of 12 genes each relative to the control group was determined.
Recorded expression variation rate tagln values for a group of compounds are listed next.

# example entries with known answers
INSERT INTO results (compound, observable, result) VALUES
  ('C[C@H]1COc2c(N3CCN(C)CC3)c(F)cc3c(=O)c(C(=O)O)cn1c23 [levofloxacin]', 'expression variation rate tagln', 0.90),
  ('O=C(NCC1CCCCN1)c1cc(OCC(F)(F)F)ccc1OCC(F)(F)F (centres unmarked) [flecainide]', 'expression variation rate tagln', 0.86),
  ('CN(C)CCCN1c2ccccc2CCc2ccc(Cl)cc21 [clomipramine]', 'expression variation rate tagln', 0.78),
  ('CN1CCN(C(c2ccccc2)c2ccc(Cl)cc2)CC1 (centres unmarked) [chlorcyclizine]', 'expression variation rate tagln', 0.30),
  ('CN(C)CCCN1c2ccccc2Sc2ccc(Cl)cc21 [chlorpromazine]', 'expression variation rate tagln', 0.65),
  ('CC[C@H]1OC(=O)[C@H](C)[C@@H](O[C@H]2C[C@@](C)(OC)[C@@H](O)[C@H](C)O2)[C@H](C)[C@@H](O[C@@H]2O[C@H](C)C[C@H](N(C)C)[C@H]2O)[C@](C)(OC)C[C@@H](C)C(=O)[C@H](C)[C@@H](O)[C@]1(C)O [clarithromycin]', 'expression variation rate tagln', 0.86),
  ('CSc1ccc2c(c1)N(CCC1CCCCN1C)c1ccccc1S2 (centres unmarked) [thioridazine]', 'expression variation rate tagln', 0.46);

Exercise: Given CN(C)CCC=C1c2ccccc2CCc2ccccc21 [amitriptyline] , state its recorded expression variation rate tagln.
Solution: 0.23
